- Assay Summary: Compound stability in mouse plasma
- Type: in vitro ADME
- Assay Conditions: serum (method text and assay name say plasma), 37° C., pH 7.4
Parameter Measured: half-life at 10 μM (h)
Please reply with the bare figure in h and do not write the unit itself.

In: Consider the compound CCC[C@H](NC(C)=O)C(=O)N[C@H]1CSCc2cccc(c2)CSC[C@@H](C(N)=O)NC(=O)CN(C)C(=O)[C@H](Cc2ccc(F)cc2)N(C)C(=O)[C@H](Cc2ccc(O)cc2)NC(=O)[C@H](Cc2c[nH]c3ncccc23)NC(=O)[C@H](c2ccccc2)NC(=O)[C@H](C)N(C)C(=O)[C@H](Cc2cnc[nH]2)NC(=O)[C@H](CCCCN)NC(=O)[C@H](C(C)(C)C)NC(=O)[C@H](Cc2ccc(O)cc2)NC1=O (relative stereo) [Compound R4000] . State its measured half-life at 10 μM.
Out: 5

====

- Tested on: GMPPNP-loaded H-Ras or GTP-loaded K-Ras
- Assay Summary: Fluorescence polarization competition assay with TAMRA-labeled probe R4007
- Assay type: binding, human
- Assay Conditions: 120 nM Ras, 30 nM probe R4007, 60 minutes at room temperature; read-out: Probe displacement (nM IC50)
*1 amine or outer side, *2 acyl side, *3 side chain or, on linkers, in order; H or OH if unused. Bridges are numbered along the chain shown (N, C = ends). [ ]: non-standard residue; d: D form. The star is where a group is joined. ξ: configuration not given here. 4‑(dimethylamino)benzoyl‑d4 = DMABZK2: N6-(4-(dimethylamino)benzoyl-2,3,5,6-d4)-L-lysine, [2H]c1c([2H])c(N(C)C)c([2H])c([2H])c1C(=O)*; DAPTZAC3 = (S)-3-(4-(3-acrylamidopropyl)-1H-1,2,3-triazol-1-yl)-2-aminopropanoic acid, C=CC(=O)NCCCc1cn(C[C@H](N[*:1])C(=O)[*:2])nn1; DAPTZAC2 = (S)-3-(4-(2-acrylamidoethyl)-1H-1,2,3-triazol-1-yl)-2-aminopropanoic acid, C=CC(=O)NCCc1cn(C[C@H](N[*:1])C(=O)[*:2])nn1; ADTZPA = (S)-2-amino-3-(1-dodecyl-1H-1,2,3-triazol-4-yl)propanoic acid; m‑xylylene = m-xylylene thioether bridge between Cys; Trp(7-aza) = N[C@@H](Cc1c[nH]c2ncccc12)C(=O)O; NMePhe(4-F) = CN[C@@H](Cc1ccc(F)cc1)C(=O)O; PEG4 = NCCOCCOCCOCCOCCC(=O)O; Phg = N[C@H](C(=O)O)c1ccccc1; Tle = CC(C)(C)[C@H](N)C(=O)O; ξPhg = NC(C(=O)O)c1ccccc1; NMeA = CN[C@@H](C)C(=O)O; Nva = CCC[C@H](N)C(=O)O; Sar = CNCC(=O)O
# reported IC50; entries follow
Please reply with the bare figure in nM and do not write the unit itself.

Guide cases for IC50, answers given:
ACE-NVA-SER-TYR-TBG-ALA-DAPTZAC2-NMA-RPHG-7AW-TYR-MFF-SAR-SER-NH2 (Ac-[Nva]SY[Tle]A[DAPTZAC2][NMeA][ξPhg][Trp(7-aza)]Y[NMePhe(4-F)][Sar]S-NH2) [Compound R4151, linear] : 12200
ACE-NVA-SER-TYR-TBG-ALA-DAPTZAC3-NMA-RPHG-7AW-TYR-MFF-SAR-SER-NH2 (Ac-[Nva]SY[Tle]A[DAPTZAC3][NMeA][ξPhg][Trp(7-aza)]Y[NMePhe(4-F)][Sar]S-NH2) [Compound R4148, linear] : 6000
ACE-NVA-CYS*-TYR-TBG-DMABZK2-HIS-NMA-PHG-7AW-TYR-MFF-SAR-CYS*-NH2 (Ac-[Nva]CY[Tle]K(4‑(dimethylamino)benzoyl‑d4)H[NMeA][Phg][Trp(7-aza)]Y[NMePhe(4-F)][Sar]C-NH2; linker 2-13 via m‑xylylene) [Compound R4150, cyclized by a m-xylylene thioether bridge] : 7640

In: Consider the substance ACE-NVA-CYS*-TYR-TBG-LYS-HIS-NMA-PHG-7AW-TYR-MFF-SAR-CYS*-PEG4PA-ADTZPA-NH2 (Ac-[Nva]CY[Tle]KH[NMeA][Phg][Trp(7-aza)]Y[NMePhe(4-F)][Sar]C-{PEG4-ADTZPA-NH2}; linker 2-13 via m‑xylylene) [Compound R4147, cyclized by a m-xylylene thioether bridge] . State its measured IC50.
Out: 5190
